This collection of values is drawn from patent US11649460B2.

- Test system: NHF human foreskin skin fibroblasts
- TEST PROTOCOL: SRB cell proliferation (cytotoxicity) assay, NHF
- COND: read-out: IC50: Concentration to inhibit 50% of cell growth; NHF
MEASURED QUANTITY: IC50 (µM)

N.N.[Cl][Pt][Cl] [Cisplatin, reference compound] :: 4.77
